Where these numbers come from: patent US4419351A

# maps each entry to its Toxic Level
System: ascites Sarcoma-180 tumor
Assay: chemotherapeutic activity vs ascites Sarcoma-180 tumor, single i.p. injection on day 1 (Table 2 survey)
Format: in vivo, Swiss White mice
Conditions: carrier saline; single i.p. day 1; 2 or more of 6 animals died within 8 days
Unit mg/kg implied. Number only.

Worked examples, 3 compounds total:
>>> val("CCOC(=O)c1c[nH]c(=O)[nH]c1=O")
200
>>> val("O=c1[nH]cc(CO)c(=O)[nH]1 [5-hydroxymethyluracil Class IA]")
200
>>> val("CC1CNC(=O)NC1=O (centres unmarked) [5,6-dihydrothymine Class IA]")
400

Let's switch to this compound now.
### Prompt State measured Toxic Level of the compound CC#N.CC#N.[Cl][Pt][Cl] [Pt(CH3 CN)2 Cl2, reference compound] with ascites Sarcoma-180 tumor.
### Response 50
